Each recorded value in this set is attributed to PubChem BioAssay (NCI).

# System: MOLT-4 leukemia
# assay-explanation: NCI tumour cell line growth inhibition, 48 h
property-measured: TGI

Qu. What value of TGI has been reported for the following molecule? Cc1ccccc1OCC(COC(=O)Nc1ccccc1)OC(=O)Nc1ccccc1 (stereo unspecified)
Ans. > 100 µM

Qu. What value of TGI has been reported for the following molecule? Cc1ccc(S(=O)(=O)NC2C(=O)c3ccccc3C(=O)C2n2ccnc2)cc1 (stereo unspecified)
Ans. 80.8 µM

Qu. What value of TGI has been reported for the following molecule? COc1ccc2c(c1)OCC1c3cc(O)ccc3OC21 (stereo unspecified)
Ans. > 100 µM

Qu. What value of TGI has been reported for the following molecule? CC(C)(C)c1ccc2c(c1)C(O)(c1ccccc1)c1cc(C(C)(C)C)ccc1C2(O)C(F)(F)F (stereo unspecified)
Ans. 4.71 µM

Qu. What value of TGI has been reported for the following molecule? N/N=C(/Cc1ccccc1)NNC(N)=S
Ans. > 100 µM

Qu. What value of TGI has been reported for the following molecule? CCOC(=O)C(Cc1ccc([N+](=O)[O-])cc1)NC(=O)CC1c2ccccc2-c2ccccc21 (stereo unspecified)
Ans. > 100 µM

Qu. What value of TGI has been reported for the following molecule? CCOc1ccc2nc(S/C(=C/C=C(C#N)C#N)c3ccc(Cl)cc3)sc2c1
Ans. > 100 µM

Qu. What value of TGI has been reported for the following molecule? N#Cc1ccc(Oc2nc3ccccc3nc2C(=O)O)cc1
Ans. > 100 µM

Qu. What value of TGI has been reported for the following molecule? O=c1c2c([nH]c3cc4c(cc13)OCO4)-c1ccccc1C2
Ans. 82 µM

Qu. What value of TGI has been reported for the following molecule? CCOC(=O)c1nc2ccccc2nc1Nc1ccc(Cl)c(Cl)c1
Ans. > 100 µM

Qu. What value of TGI has been reported for the following molecule? Cc1occc(=O)c1O
Ans. > 100 µM
